Kindly state pEC50 for each of the entries shown.
molecular target: human GPR84 (Homo sapiens, UniProt Q9NQS5); construct: CHO-hGPR84); assay: β-arrestin recruitment assay (β-galactosidase enzyme complementation) in CHO-hGPR84 cells; type: cell-based; conditions: n = 5; read-out: β-Arrestin Assay EC50 ± SD
Sequence (Q9NQS5 whole entry): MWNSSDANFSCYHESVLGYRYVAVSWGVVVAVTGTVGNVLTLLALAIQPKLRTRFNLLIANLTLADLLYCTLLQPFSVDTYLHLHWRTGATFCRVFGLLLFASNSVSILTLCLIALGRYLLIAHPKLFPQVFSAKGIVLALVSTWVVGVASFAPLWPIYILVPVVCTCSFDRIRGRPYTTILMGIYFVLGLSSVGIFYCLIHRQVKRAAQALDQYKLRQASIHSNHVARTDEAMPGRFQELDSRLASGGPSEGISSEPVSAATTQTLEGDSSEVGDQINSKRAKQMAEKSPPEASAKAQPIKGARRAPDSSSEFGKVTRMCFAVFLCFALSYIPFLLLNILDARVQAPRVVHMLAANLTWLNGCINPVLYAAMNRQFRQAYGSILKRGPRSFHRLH
Quick note: pEC50 values are minus log10 of concentrations in mol/L.

Task: Tell us which pEC50 value is on record for CCCCCC[C@H]1C[C@H]1CC(=O)O (relative stereo) [Compound 2, cis-2-(2-hexylcyclopropyl)-acetic acid]
Output: 6.94

Task: Tell us which pEC50 value is on record for CCCCCCCCCCCC(=O)O [Dodecanoic acid, reference compound]
Output: 5.55
